Assayed Target: ADRB1 (Homo sapiens, UniProt P08588)
Construct: purchased Promega (in-house HiBiT-GPCR construct library, NanoBRET)
Sequence (P08588 whole entry): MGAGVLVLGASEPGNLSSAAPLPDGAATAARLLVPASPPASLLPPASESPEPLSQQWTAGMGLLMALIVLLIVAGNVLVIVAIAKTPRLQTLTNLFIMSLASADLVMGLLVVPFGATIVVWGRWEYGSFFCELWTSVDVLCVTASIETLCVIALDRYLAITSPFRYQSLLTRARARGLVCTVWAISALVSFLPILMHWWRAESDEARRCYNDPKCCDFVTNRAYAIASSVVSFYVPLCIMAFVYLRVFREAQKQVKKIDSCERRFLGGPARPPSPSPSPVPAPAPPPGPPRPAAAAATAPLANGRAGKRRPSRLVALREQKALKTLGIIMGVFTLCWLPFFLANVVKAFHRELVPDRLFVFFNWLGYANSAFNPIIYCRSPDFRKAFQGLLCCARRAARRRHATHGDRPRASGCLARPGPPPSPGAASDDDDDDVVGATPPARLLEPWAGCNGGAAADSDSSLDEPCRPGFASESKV
Assay Explanation: NanoBRET screen HiBiT-ADRB1 in HEK293
Assay type: binding
Condition Notes: ADRB1; tracer 1μM
Each entry below carries its reported NanoBRET Fold Response.
Number only, please.

Find the recorded NanoBRET Fold Response belonging to O=C(CCc1ccc2n1[B-](F)(F)[N+]1=C(c3ccc[nH]3)C=CC1=C2)NCc1ccc(C(=O)NCCOCCC(=O)N[C@@H]2CC[C@@]3(O)[C@H]4Cc5ccc(O)c6c5[C@@]3(CCN4CC3CC3)[C@H]2O6)cc1 [Naltrexone-3-NB590] and report it. 0.83

Continuing:
Query: NanoBRET Fold Response; subject: O=C(CCOCCOCCOCCOCCNC(=O)CCc1ccc2n1[B-](F)(F)[N+]1=C(c3ccc[nH]3)C=CC1=C2)NCCCN1CCN(C2=Nc3ccccc3Oc3ccc(Cl)cc32)CC1 0.97

Quick check: NanoBRET Fold Response of N#CN=C(NCCCOc1cccc(CN2CCCCC2)c1)NCCNC(=O)CCOCCOCCOCCOCCNC(=O)CCc1ccc2n1[B-](F)(F)[N+]1=C(c3ccc[nH]3)C=CC1=C2 ? 0.99

Name the recorded NanoBRET Fold Response for CCCn1c(=O)c2[nH]c(-c3ccc(OCC(=O)NCCNC(=O)CCOCCNC(=O)c4ccc(CNC(=O)CCc5ccc6n5[B-](F)(F)[N+]5=C(c7ccc[nH]7)C=CC5=C6)cc4)cc3)nc2n(CCC)c1=O . 1.05
